B1: CPEB3 Ribozyme (parent)
chain: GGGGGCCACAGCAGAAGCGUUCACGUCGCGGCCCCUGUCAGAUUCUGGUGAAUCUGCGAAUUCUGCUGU

variants of: B1; experiment: self-cleavage, relative activity (ratio to wild type); higher = more cleavage; co-transcriptional
Classify by self-cleavage. Ranges: lower band (below 0.2), central band (0.2 to below 0.4), upper band (0.4 or more)

G1A U64C    lower band

Which band does G2C G14U fall in? lower band

Which band does U36A G37U fall in? central band

Which band does C29A U61G fall in? upper band

Which band does C32A U43G fall in? central band

Which band does G3C C32U fall in? lower band
